test system: HOP-92 NSCLC; experiment: NCI tumour cell line growth inhibition, 48 h
Exercise: state measured TGI for each of the molecules provided.

CCOc1cc(-c2nc3ccccn3c2/N=C/c2cc(Br)ccc2O)ccc1O: 64.5 µM
O=C(N/N=C/c1cc(Br)cc(Br)c1[O-])c1ccccc1O.O=C(N/N=C/c1cc(Br)cc(Br)c1[O-])c1ccccc1O.[Fe+2]: 6.89 µM
COC12C=C(C)C(CC1)CC2C(=O)O (stereo unspecified): > 100 µM
CC1CC(=O)Nc2nc3ccccc3n21 (stereo unspecified): > 100 µM
COc1ccc(C2=CC3CCC2C3)cc1 (stereo unspecified): > 100 µM
Cc1cccc(C)c1NC(=O)C(=O)C1C(=O)NC(=O)NC1=O: > 100 µM

Batch request: TGI for each of the following molecules.
1. O=C(Nc1ccccc1C(=O)NCCCO)/C(=C/c1ccccc1O)NC(=O)c1ccccc1
2. CC(C)(C)[Si](C)(C)OCC1OC(n2cnc3c(N)ncnc32)C(O[Si](C)(C)C(C)(C)C)C1O[Si](C)(C)C(C)(C)C (stereo unspecified)
3. C=c1c(OC)c(OC)c(O)c2c1=c1cc([N+](=O)[O-])cc(OC)c1=N2

## Output
["> 100 µM", "> 100 µM", "> 100 µM"]

Batch request: TGI for each of the following molecules.
1. COc1ccc(/C=C/c2nccc3ccccc23)cc1OC
2. CCCn1cnc2c(SCc3ccccc3Cl)nc(N)nc21

## Output
1. > 10 µM
2. 23.9 µM

====

Exercise: state measured TGI for each of the compounds provided.
tested on: NCI/ADR-RES ovarian; experiment: NCI tumour cell line growth inhibition, 48 h

Batch request: TGI for each of the following compounds.
1. CS(=O)(=O)c1ccc([C@H]2O[C@@H](CO)C[C@]2(O)c2ccc(S(C)(=O)=O)cc2)cc1
2. C=C1C(=O)O[C@H]2[C@H]1CC/C(COC(=O)c1ccc3ccccc3c1)=C\CC[C@@]1(C)O[C@@H]21
3. CCOC(=O)C(CC#Cc1ccc(C#CCC(NC(C)=O)C(=O)OCC)cc1)NC(C)=O (stereo not drawn)
4. COc1ccc(-c2cnnc3c(-c4cccc(C(F)(F)F)c4)cnn23)cc1
5. OCc1c[nH]c2ccccc12
6. COc1cc2c(/C=C3/C(=O)Nc4ccccc43)c(Cl)[nH]c2cc1C
7. NC(N)=NS(=O)(=O)c1ccc(NC(=O)c2ccc3nc4ccccc4c(Nc4ccc(S(=O)(=O)N=C(N)N)cc4)c3c2)cc1

## Output
> 100 µM
10.2 µM
> 100 µM
> 100 µM
71.4 µM
0.894 µM
> 100 µM

Batch request: TGI for each of the following compounds.
1. O=C1c2cc(Cl)ccc2S(=O)(=O)c2c(NCCCNCCO)nc3ccccc3c21
2. COC1/C=C\C=C(/C)C(=O)NC2=CC(=O)C(=O)C(=C2O)CC(C)CC(OC)C(O)C(C)/C=C(\C)C1OC(N)=O (stereo not drawn)
3. COC(=O)Cc1c([C@H]2[C@H](CC(=O)OC)c3ccccc3N2C(C)=O)[nH]c2ccccc12

## Output
10.8 µM
> 100 µM
> 100 µM

Batch request: TGI for each of the following compounds.
1. O=C1CCCCN1CCCCC#Cc1ccccc1C#Cc1ccc([N+](=O)[O-])cc1
2. NC(=O)c1cc2ccccc2o/c1=N/O
3. CC(=S)N=Cc1c(O)cc(C)oc1=O
4. O=c1c(-c2ccc(Cl)cc2)nnc2n(Cc3ccccc3)c3ccccc3n12
5. Cc1cn(C(C)OCCN2C(=O)c3ccccc3C2=O)c(=O)[nH]c1=O (stereo not drawn)
6. CC(=O)OC/C=C(/C=C/CNC1CCCCC1)OC(C)=O

## Output
1. 12.3 µM
2. > 100 µM
3. > 100 µM
4. > 100 µM
5. > 100 µM
6. 44.6 µM

Batch request: TGI for each of the following compounds.
1. O=C(N/N=C/c1ccco1)c1cc(I)cc(I)c1O
2. Brc1cccc(N=NN2CCCC2)c1

## Output
["> 50 µM", "> 100 µM"]

Batch request: TGI for each of the following compounds.
1. CCC(C(=O)c1ccc(OC)c(OC)c1)N(C(=O)C(F)(F)F)C(C)c1ccccc1 (stereo not drawn)
2. CCCn1cnc2c(SCc3ccccc3Cl)nc(N)nc21
3. Clc1ccc(OCc2nnc(CCCCCCCCc3nnc(COc4ccc(Cl)cc4)n3Nc3ccccc3)n2Nc2ccccc2)cc1
4. Nc1c(C(=O)c2ccc(Cl)cc2)[nH]c(NCc2ccccc2)c1C(=S)Nc1ccccc1

## Output
1. > 100 µM
2. 64.1 µM
3. 81.5 µM
4. 24.2 µM

## Input So what does the record say about TGI for Cc1c2ncccc2cc2oc3ccccc3c(=O)c12 ?
## Output > 100 µM

====

Exercise: state measured TGI for each of the compounds provided.
system: MCF7 breast; test: NCI tumour cell line growth inhibition, 48 h

CC1=CC(=Nc2ccc(N(CCCl)CCCl)cc2)C=C(C)C1=O: 3.98 µM
CC1(CNCc2ccccc2)CC(CCc2ccccc2)N(C(=O)c2ccc([N+](=O)[O-])cc2)C1Cc1ccc(O)cc1 (stereo not drawn): 19.2 µM
CC1(C)C=C(S(=O)(=O)c2ccccc2)Oc2ccccc2O1: > 100 µM

Batch request: TGI for each of the following compounds.
1. COc1ccc(-c2cc(=O)c3c(OC)c(OC)c(OC)cc3o2)cc1
2. FC(F)(F)c1ccc2nc3n(c2c1)C(c1c(Cl)cccc1Cl)SC3 (stereo not drawn)
3. Nc1cc(N)c2nc(-c3ccccc3)c(Nc3ccc(Cl)c(Cl)c3)nc2c1
4. Clc1ccc(OCc2nnc(CCCCCCCCc3nnc(COc4ccc(Cl)cc4)n3Nc3ccccc3)n2Nc2ccccc2)cc1
5. CC(=O)OCCN1c2ccccc2Sc2cnccc21
6. N#Cc1cc2c(cc1Cl)Sc1nccn1S2(=O)=O

## Output
["> 100 µM", "37.9 µM", "21.1 µM", "> 100 µM", "> 10 µM", "> 23.4 µM"]

Batch request: TGI for each of the following compounds.
1. CC1(C)OCC2OC3([C@H]4OC(C)(C)O[C@@H]4CO)OC(C)(C)OC3C2O1 (stereo partly drawn)
2. Oc1ccc(CN2CCC(N3CCCCC3)CC2)c2cccnc12
3. COc1cc(C2=NOC(c3cc(OC)c(OC)c(OC)c3)C2)ccc1OCCCCOc1cc2c(cc1OC)C(=O)N1CCC[C@H]1C=N2 (stereo partly drawn)
4. CCN(CC)c1ccc(/C=C/c2ccc3cc(C)ccc3[n+]2CC)cc1
5. O=[N+]([O-])c1ccc(NC(=S)N=Nc2c(O)[nH]c3ccc(Br)cc23)cc1
6. NC(=O)c1cc2ccccc2o/c1=N/O
7. O=C(N/N=C/c1ccco1)c1cc(I)cc(I)c1O

## Output
1. > 100 µM
2. > 100 µM
3. 24.4 µM
4. 3.26 µM
5. 22 µM
6. > 100 µM
7. > 50 µM

Batch request: TGI for each of the following compounds.
1. CC1S/C(=N/c2nnc(-c3ccccc3)o2)NC1=O (stereo not drawn)
2. CCC(C(=O)c1ccc(OC)c(OC)c1)N(C(=O)C(F)(F)F)C(C)c1ccccc1 (stereo not drawn)
3. O=C(CSc1n[nH]c(=O)[nH]c1=O)NNC(=O)c1cccc2nc3ccccc3nc12
4. COc1cc(/C=C\C(=O)O)ccc1OCc1ccccc1
5. CCCCc1ccc(Nc2nc3c(ncn3COCCO)c(=O)[nH]2)cc1
6. O=C(N/N=C/c1ccccc1O)c1ccccc1Nc1ccnc(C(F)(F)F)c1

## Output
> 100 µM
> 100 µM
> 100 µM
> 100 µM
> 100 µM
29.2 µM

====

Exercise: state measured TGI for each of the molecules provided.
test system: NCI-H23 lung; experiment: NCI tumour cell line growth inhibition, 48 h

Example molecules with recorded TGI:
N#CSc1c[nH]c2cccc(/C=C/C(=O)/C=C(/C=C/c3cccc4[nH]cc(SC#N)c34)OB(F)F)c12: 3.29 µM
CC1(C)CNC(=O)C2(C=NC(C)(C)CNC(=O)C3(C=N1)CCCO3)CCCO2 (configuration not stated): > 10 µM
NC1CNC(=O)c2c(Cl)sc(Cl)c21 (configuration not stated): > 100 µM
Brc1ccc2c(-c3csc(-c4c[nH]c5ccc(Br)cc45)n3)c[nH]c2c1: 14.2 µM

Batch request: TGI for each of the following molecules.
1. O=C1NC2OC(CO)C(O)C(O1)C2O (configuration not stated)
2. O=C(Nc1cccc(O)c1)C(=O)C(C(=O)c1ccccc1F)C1OC(=O)c2ccccc21 (configuration not stated)

## Output
1: > 100 µM; 2: 88.2 µM

## Input So what does the record say about TGI for CCOC(=O)/C(C#N)=N\Nc1ccc(-n2c(C)nc3ccccc3c2=O)cc1 ?
## Output > 100 µM

====

test system: HOP-92 NSCLC; experiment: NCI tumour cell line growth inhibition, 48 h
Measurement type: TGI

CC1(C)OCC2OC3([C@H]4OC(C)(C)O[C@@H]4CO)OC(C)(C)OC3C2O1 (some centres undefined): > 100 µM
CN1CCN(C(=O)OCc2nc3c(N4CCOCC4)nc(Cl)nc3n2C)CC1: 2.23 µM
COc1ccc(Nc2nc3c([nH]2)c(=O)n(C)c(=O)n3C)cc1: > 10 µM
COc1cc(C2NC(=O)c3ccccc3N2)ccc1OCCCCCOc1c(OC)cc(C2=NOC(c3cc(OC)c(OC)c(OC)c3)C2)cc1OC (centres undefined): > 100 µM

Batch request: TGI for each of the following compounds.
1. N#Cc1ccc(O)c(C2=NCC(c3cccc(Oc4ccccc4)c3)O2)c1 (centres undefined)
2. COc1ccc(-c2cc(=O)c3ccc(O)cc3o2)cc1OC
3. CN(C)CCn1c(=O)c2ccc(NCCCN(C)CCCNc3ccc4c(=O)n(CCN(C)C)c(=O)n5c6ccc([N+](=O)[O-])cc6c(=O)c3c45)c3c(=O)c4cc([N+](=O)[O-])ccc4n(c1=O)c23
4. Oc1ccc(NCc2nc3ccccc3[nH]2)cc1
5. NC(=O)c1cc2ccccc2o/c1=N/O

## Output
1. 37 µM
2. > 100 µM
3. 0.198 µM
4. 53 µM
5. > 100 µM
